Recorded measurements of Antifungal activity MIC, one per entry
# System: Candida tropicalis KKP 334
# method-description: antifungal activity in vitro, serial dilution in RPMI 1640
# Type: cell-based

compound: C[C@@H]1[C@H](O)[C@@H](C)/C=C/C=C/C=C/C=C/C=C/C=C/C=C/[C@H](O[C@@H]2O[C@H](C)[C@@H](O)[C@H](NC(=O)[C@@H](N)Cc3ccc([N+](=O)[O-])cc3)[C@@H]2O)C[C@@H]2O[C@](O)(C[C@@H](O)C[C@@H](O)[C@H](O)CC[C@@H](O)C[C@@H](O)CC(=O)O[C@H]1C)C[C@H](O)[C@H]2C(=O)O
reading-unit: µg/mL
Antifungal activity MIC: 4
//
compound: C[C@@H]1[C@H](O)[C@@H](C)/C=C/C=C/C=C/C=C/C=C/C=C/C=C/[C@H](O[C@@H]2O[C@H](C)[C@@H](O)[C@H](NC(=S)NCCN3CCCC3)[C@@H]2O)C[C@@H]2O[C@](O)(C[C@@H](O)C[C@@H](O)[C@H](O)CC[C@@H](O)C[C@@H](O)CC(=O)O[C@H]1C)C[C@H](O)[C@H]2C(=O)O
reading-unit: µg/mL
Antifungal activity MIC: 2
//
compound: C[C@@H]1[C@H](O)[C@@H](C)/C=C/C=C/C=C/C=C/C=C/C=C/C=C/[C@H](O[C@@H]2O[C@H](C)[C@@H](O)[C@H](NC(=O)[C@@H](N)Cc3ccccc3)[C@@H]2O)C[C@@H]2O[C@](O)(C[C@@H](O)C[C@@H](O)[C@H](O)CC[C@@H](O)C[C@@H](O)CC(=O)O[C@H]1C)C[C@H](O)[C@H]2C(=O)O
reading-unit: µg/mL
Antifungal activity MIC: 2
//
compound: C[C@@H]1[C@H](O)[C@@H](C)/C=C/C=C/C=C/C=C/C=C/C=C/C=C/[C@H](O[C@@H]2O[C@H](C)[C@@H](O)[C@H](NC(=S)Nc3cccnc3)[C@@H]2O)C[C@@H]2O[C@](O)(C[C@@H](O)C[C@@H](O)[C@H](O)CC[C@@H](O)C[C@@H](O)CC(=O)O[C@H]1C)C[C@H](O)[C@H]2C(=O)O
reading-unit: µg/mL
Antifungal activity MIC: 4
//
compound: C[C@@H]1[C@H](O)[C@@H](C)/C=C/C=C/C=C/C=C/C=C/C=C/C=C/[C@H](O[C@@H]2O[C@H](C)[C@@H](O)[C@H](NC3CC(=O)N(Cc4ccccc4)C3=O)[C@@H]2O)C[C@@H]2O[C@](O)(C[C@@H](O)C[C@@H](O)[C@H](O)CC[C@@H](O)C[C@@H](O)CC(=O)O[C@H]1C)C[C@H](O)[C@H]2C(=O)O (stereo partly drawn)
reading-unit: µg/mL
Antifungal activity MIC: 4
//
compound: C[C@@H]1[C@H](O)[C@@H](C)/C=C/C=C/C=C/C=C/C=C/C=C/C=C/[C@H](O[C@@H]2O[C@H](C)[C@@H](O)[C@H](NC3CC(=O)N(c4ccc([N+](=O)[O-])cc4)C3=O)[C@@H]2O)C[C@@H]2O[C@](O)(C[C@@H](O)C[C@@H](O)[C@H](O)CC[C@@H](O)C[C@@H](O)CC(=O)O[C@H]1C)C[C@H](O)[C@H]2C(=O)O (stereo partly drawn)
reading-unit: µg/mL
Antifungal activity MIC: 4

----------
Examples of compounds with documented Antifungal activity MIC follow.
# Test system: Candida arborea KKP 319
# method-description: antifungal activity in vitro, broader spectrum
# Assay type: cell-based
metric: Antifungal activity MIC (µg/mL)

molecule-smiles: C[C@@H]1[C@H](O)[C@@H](C)/C=C/C=C/C=C/C=C/C=C/C=C/C=C/[C@H](O[C@@H]2O[C@H](C)[C@@H](O)[C@H](NC(=O)[C@@H](N)Cc3ccc([N+](=O)[O-])cc3)[C@@H]2O)C[C@@H]2O[C@](O)(C[C@@H](O)C[C@@H](O)[C@H](O)CC[C@@H](O)C[C@@H](O)CC(=O)O[C@H]1C)C[C@H](O)[C@H]2C(=O)O
reading-unit: µg/mL
assay-result: 2

molecule-smiles: C[C@@H]1[C@H](O)[C@@H](C)/C=C/C=C/C=C/C=C/C=C/C=C/C=C/[C@H](O[C@@H]2O[C@H](C)[C@@H](O)[C@H](NC(=O)[C@H](N)Cc3cccnc3)[C@@H]2O)C[C@@H]2O[C@](O)(C[C@@H](O)C[C@@H](O)[C@H](O)CC[C@@H](O)C[C@@H](O)CC(=O)O[C@H]1C)C[C@H](O)[C@H]2C(=O)O
reading-unit: µg/mL
assay-result: 4

----------
# Test system: Candida glabrata DSM 11226
# method-description: antifungal activity in vitro, serial dilution in RPMI 1640
# Assay type: cell-based
Each entry below lists one item and its recorded Antifungal activity MIC value.

molecule: C[C@@H]1[C@H](O)[C@@H](C)/C=C/C=C/C=C/C=C/C=C/C=C/C=C/[C@H](O[C@@H]2O[C@H](C)[C@@H](O)[C@H](NC(=O)[C@H](N)c3ccccc3)[C@@H]2O)C[C@@H]2O[C@](O)(C[C@@H](O)C[C@@H](O)[C@H](O)CC[C@@H](O)C[C@@H](O)CC(=O)O[C@H]1C)C[C@H](O)[C@H]2C(=O)O [Compound A41, N-D-phenylglycylamphotericin B]
tested-on: Candida glabrata DSM 11226
Antifungal activity MIC (µg/mL): 4
--
molecule: C[C@@H]1[C@H](O)[C@@H](C)/C=C/C=C/C=C/C=C/C=C/C=C/C=C/[C@H](O[C@@H]2O[C@H](C)[C@@H](O)[C@H](NC(=S)NCCN3CCOCC3)[C@@H]2O)C[C@@H]2O[C@](O)(C[C@@H](O)C[C@@H](O)[C@H](O)CC[C@@H](O)C[C@@H](O)CC(=O)O[C@H]1C)C[C@H](O)[C@H]2C(=O)O [Compound A24]
tested-on: Candida glabrata DSM 11226
Antifungal activity MIC (µg/mL): 4
--
molecule: C[C@@H]1[C@H](O)[C@@H](C)/C=C/C=C/C=C/C=C/C=C/C=C/C=C/[C@H](O[C@@H]2O[C@H](C)[C@@H](O)[C@H](NC(=O)[C@@H](N)Cc3ccc([N+](=O)[O-])cc3)[C@@H]2O)C[C@@H]2O[C@](O)(C[C@@H](O)C[C@@H](O)[C@H](O)CC[C@@H](O)C[C@@H](O)CC(=O)O[C@H]1C)C[C@H](O)[C@H]2C(=O)O [Compound A33, N-L-p-nitrophenylalanylamphotericin B]
tested-on: Candida glabrata DSM 11226
Antifungal activity MIC (µg/mL): 4

----------
Here, each record is paired with measured Hemotoxi EH50 data.
# System: Human erythrocytes
# method-description: hemotoxicity determination (hemolytic activity)
# Type: cell-based
# details: human erythrocytes, 37° C., 30 minutes
metric: Hemotoxi EH50

molecule: C[C@@H]1[C@H](O)[C@@H](C)/C=C/C=C/C=C/C=C/C=C/C=C/C=C/[C@H](O[C@@H]2O[C@H](C)[C@@H](O)[C@H](NC(=O)C(N)Cc3ccccc3F)[C@@H]2O)C[C@@H]2O[C@](O)(C[C@@H](O)C[C@@H](O)[C@H](O)CC[C@@H](O)C[C@@H](O)CC(=O)O[C@H]1C)C[C@H](O)[C@H]2C(=O)O (some centres unmarked)
assay-result: >100 µg/mL
--
molecule: C[C@@H]1[C@H](O)[C@@H](C)/C=C/C=C/C=C/C=C/C=C/C=C/C=C/[C@H](O[C@@H]2O[C@H](C)[C@@H](O)[C@H](NC(=O)[C@H](N)CC(=O)OC(C)(C)C)[C@@H]2O)C[C@@H]2O[C@](O)(C[C@@H](O)C[C@@H](O)[C@H](O)CC[C@@H](O)C[C@@H](O)CC(=O)O[C@H]1C)C[C@H](O)[C@H]2C(=O)O
assay-result: >100 µg/mL

----------
# Antifungal activity MIC listing for each entry below
# System: Candida lusitaniae DSM 70102
# method-description: antifungal activity in vitro, serial dilution in RPMI 1640
# Type: cell-based

molecule: C[C@@H]1[C@H](O)[C@@H](C)/C=C/C=C/C=C/C=C/C=C/C=C/C=C/[C@H](O[C@@H]2O[C@H](C)[C@@H](O)[C@H](NC3CC(=O)N(Cc4ccccc4)C3=O)[C@@H]2O)C[C@@H]2O[C@](O)(C[C@@H](O)C[C@@H](O)[C@H](O)CC[C@@H](O)C[C@@H](O)CC(=O)O[C@H]1C)C[C@H](O)[C@H]2C(=O)O (stereo partly drawn) [Compound A2, N—(N-benzylsuccinimidyl)amphotericin B]
Antifungal activity MIC (µg/mL): 2
--
molecule: C[C@@H]1[C@H](O)[C@@H](C)/C=C/C=C/C=C/C=C/C=C/C=C/C=C/[C@H](O[C@@H]2O[C@H](C)[C@@H](O)[C@H](NC(=S)NCCN3CCCCC3)[C@@H]2O)C[C@@H]2O[C@](O)(C[C@@H](O)C[C@@H](O)[C@H](O)CC[C@@H](O)C[C@@H](O)CC(=O)O[C@H]1C)C[C@H](O)[C@H]2C(=O)O [Compound A22]
Antifungal activity MIC (µg/mL): 1
--
molecule: C[C@@H]1[C@H](O)[C@@H](C)/C=C/C=C/C=C/C=C/C=C/C=C/C=C/[C@H](O[C@@H]2O[C@H](C)[C@@H](O)[C@H](NC3CC(=O)N(c4ccc(Br)cc4)C3=O)[C@@H]2O)C[C@@H]2O[C@](O)(C[C@@H](O)C[C@@H](O)[C@H](O)CC[C@@H](O)C[C@@H](O)CC(=O)O[C@H]1C)C[C@H](O)[C@H]2C(=O)O (stereo partly drawn) [Compound A3]
Antifungal activity MIC (µg/mL): 4
--
molecule: C[C@@H]1[C@H](O)[C@@H](C)/C=C/C=C/C=C/C=C/C=C/C=C/C=C/[C@H](O[C@@H]2O[C@H](C)[C@@H](O)[C@H](NC(=O)[C@@H](N)Cc3ccccc3)[C@@H]2O)C[C@@H]2O[C@](O)(C[C@@H](O)C[C@@H](O)[C@H](O)CC[C@@H](O)C[C@@H](O)CC(=O)O[C@H]1C)C[C@H](O)[C@H]2C(=O)O [Compound A30, N-L-phenylalanylamphotericin B]
Antifungal activity MIC (µg/mL): 2
--
molecule: C[C@@H]1[C@H](O)[C@@H](C)/C=C/C=C/C=C/C=C/C=C/C=C/C=C/[C@H](O[C@@H]2O[C@H](C)[C@@H](O)[C@H](NC(=S)NCc3ccncc3)[C@@H]2O)C[C@@H]2O[C@](O)(C[C@@H](O)C[C@@H](O)[C@H](O)CC[C@@H](O)C[C@@H](O)CC(=O)O[C@H]1C)C[C@H](O)[C@H]2C(=O)O [Compound A29]
Antifungal activity MIC (µg/mL): 4
--
molecule: C[C@@H]1[C@H](O)[C@@H](C)/C=C/C=C/C=C/C=C/C=C/C=C/C=C/[C@H](O[C@@H]2O[C@H](C)[C@@H](O)[C@H](NC(=O)C(N)Cc3ccccc3F)[C@@H]2O)C[C@@H]2O[C@](O)(C[C@@H](O)C[C@@H](O)[C@H](O)CC[C@@H](O)C[C@@H](O)CC(=O)O[C@H]1C)C[C@H](O)[C@H]2C(=O)O (stereo partly drawn) [Compound A38, N-o-fluorophenylalanylamphotericin B]
Antifungal activity MIC (µg/mL): 2
--
molecule: C[C@@H]1[C@H](O)[C@@H](C)/C=C/C=C/C=C/C=C/C=C/C=C/C=C/[C@H](O[C@@H]2O[C@H](C)[C@@H](O)[C@H](NC(=O)[C@H](N)c3ccccc3)[C@@H]2O)C[C@@H]2O[C@](O)(C[C@@H](O)C[C@@H](O)[C@H](O)CC[C@@H](O)C[C@@H](O)CC(=O)O[C@H]1C)C[C@H](O)[C@H]2C(=O)O [Compound A41, N-D-phenylglycylamphotericin B]
Antifungal activity MIC (µg/mL): 2
--
molecule: C[C@@H]1[C@H](O)[C@@H](C)/C=C/C=C/C=C/C=C/C=C/C=C/C=C/[C@H](O[C@@H]2O[C@H](C)[C@@H](O)[C@H](NC(=O)[C@H](N)COC(C)(C)C)[C@@H]2O)C[C@@H]2O[C@](O)(C[C@@H](O)C[C@@H](O)[C@H](O)CC[C@@H](O)C[C@@H](O)CC(=O)O[C@H]1C)C[C@H](O)[C@H]2C(=O)O [Compound A40, N-D-(O-tert-butyl)serylamphotericin B]
Antifungal activity MIC (µg/mL): 2
--
molecule: C[C@@H]1[C@H](O)[C@@H](C)/C=C/C=C/C=C/C=C/C=C/C=C/C=C/[C@H](O[C@@H]2O[C@H](C)[C@@H](O)[C@H](NC3CC(=O)N(c4ccc([N+](=O)[O-])cc4)C3=O)[C@@H]2O)C[C@@H]2O[C@](O)(C[C@@H](O)C[C@@H](O)[C@H](O)CC[C@@H](O)C[C@@H](O)CC(=O)O[C@H]1C)C[C@H](O)[C@H]2C(=O)O (stereo partly drawn) [Compound A5]
Antifungal activity MIC (µg/mL): 2
